- measurement-target: Ba/F3 cells with EGFR exon 20 ASV Ins V769_D770 (Homo sapiens, UniProt P00533, INS769ASV)
- Sequence (P00533 with tags, fused parts or gaps INS769ASV): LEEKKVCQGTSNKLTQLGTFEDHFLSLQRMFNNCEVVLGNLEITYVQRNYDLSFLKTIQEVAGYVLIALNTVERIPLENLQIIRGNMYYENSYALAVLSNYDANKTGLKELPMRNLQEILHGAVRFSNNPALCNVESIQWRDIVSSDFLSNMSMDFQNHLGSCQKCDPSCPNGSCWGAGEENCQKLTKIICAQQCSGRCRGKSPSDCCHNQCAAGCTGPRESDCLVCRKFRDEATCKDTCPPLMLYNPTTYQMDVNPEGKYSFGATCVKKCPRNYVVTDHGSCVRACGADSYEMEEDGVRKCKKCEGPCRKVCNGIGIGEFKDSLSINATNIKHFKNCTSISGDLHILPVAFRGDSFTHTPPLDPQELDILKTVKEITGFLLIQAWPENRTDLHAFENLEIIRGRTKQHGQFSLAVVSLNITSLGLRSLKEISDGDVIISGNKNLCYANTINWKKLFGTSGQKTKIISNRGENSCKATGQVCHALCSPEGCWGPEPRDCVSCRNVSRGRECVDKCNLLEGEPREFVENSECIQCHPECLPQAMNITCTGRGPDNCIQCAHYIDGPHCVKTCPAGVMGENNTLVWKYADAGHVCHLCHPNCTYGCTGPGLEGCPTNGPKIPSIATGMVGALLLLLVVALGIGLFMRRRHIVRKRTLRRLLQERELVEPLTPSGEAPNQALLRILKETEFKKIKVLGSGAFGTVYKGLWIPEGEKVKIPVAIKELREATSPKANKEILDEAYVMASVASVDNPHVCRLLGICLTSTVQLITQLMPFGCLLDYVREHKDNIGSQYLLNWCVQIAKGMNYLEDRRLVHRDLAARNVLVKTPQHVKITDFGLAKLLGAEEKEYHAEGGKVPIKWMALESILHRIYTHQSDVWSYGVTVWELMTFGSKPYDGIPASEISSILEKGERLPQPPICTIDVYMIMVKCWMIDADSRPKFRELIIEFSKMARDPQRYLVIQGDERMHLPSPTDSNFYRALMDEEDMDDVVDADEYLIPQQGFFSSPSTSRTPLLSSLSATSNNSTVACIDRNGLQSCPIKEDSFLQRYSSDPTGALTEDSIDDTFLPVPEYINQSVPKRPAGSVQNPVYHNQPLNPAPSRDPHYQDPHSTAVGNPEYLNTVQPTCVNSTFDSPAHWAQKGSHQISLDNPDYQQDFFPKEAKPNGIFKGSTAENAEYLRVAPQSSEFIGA
- assay-procedure: EGFR activity: Ba/F3 cell viability (CellTiter-Glo, 72 h), EGFR exon 20 ASV insertion
- condition-description: EGFR exon 20 ASV Ins V769_D770, cell viability, read-out: BaF3 ASV IC50
observation-type: IC50

As a guide, the following entries are already answered.
>  <compound>
CC#CC(=O)N1CC[C@H]1C#Cc1cnccc1-c1[nH]c2c(c1Nc1cccc(F)c1OC)C(=O)NCC2 [compound 374]

>  <measurement-target>
Ba/F3 cells with EGFR exon 20 ASV Ins V769_D770 (Homo sapiens, UniProt P00533, INS769ASV)

>  <result>
< 100 nM

$$$$
>  <compound>
C=CC(=O)N[C@H](C#Cc1cnccc1-c1[nH]c2c(c1Nc1cccc(Cl)c1OC)C(=O)NCC2)CC [compound 581]

>  <measurement-target>
Ba/F3 cells with EGFR exon 20 ASV Ins V769_D770 (Homo sapiens, UniProt P00533, INS769ASV)

>  <result>
< 100 nM

$$$$
>  <compound>
COc1c(Cl)cccc1Nc1c(-c2ccncc2OC[C@@]2(C)CCN2C(=O)/C=C/CN(C)C)[nH]c2c1C(=O)NCC2 [compound 425]

>  <measurement-target>
Ba/F3 cells with EGFR exon 20 ASV Ins V769_D770 (Homo sapiens, UniProt P00533, INS769ASV)

>  <result>
< 100 nM

$$$$

Could you now consider this next compound?
Q: Requested field: IC50. Item: COc1c(F)cccc1Nc1c(-c2ccncc2C#C[C@@]2(NC(=O)/C=C/CN(C)C)CCOC2)[nH]c2c1C(=O)NCC2 [compound 419]
Ans: 100 to 1000 nM

Data provenance is patent US20230364070A1.
